Tested on: primary human hepatic stellate cells (donor 1)
Assay: scaled lipid accumulation score (0 = DMSO-like, 1 = nortriptyline-like); higher = stronger HSC inactivation (lipid re-accumulation), active = hit call of the paper
Conditions: library stock concentration: 3.33 mM; 48 h
Where a name gives a salt, the structure may show the parent alone. In all, about 5,800 compounds went through this assay and about 620 (11%) showed activity. Many of the other results were omitted from the sample, so actives are more common in it than they were.

- Compound: "COc1cc2nccc(Oc3ccc(NC(=O)Nc4ccc(F)cc4F)c(F)c3)c2cc1OC"
  scaled lipid accumulation score: "0.473 (inactive)"
- Compound: "C=CCNC1=C2C[C@@H](C)C[C@H](OC)[C@H](O)[C@@H](C)/C=C(\\C)[C@H](OC(N)=O)[C@@H](OC)/C=C\\C=C(/C)C(=O)NC(=CC1=O)C2=O"
  scaled lipid accumulation score: "0.613 (inactive)"
- Compound: "CN1CC[C@@H](c2c(O)cc(O)c3c(=O)cc(-c4ccccc4Cl)oc23)[C@@H]1CO"
  scaled lipid accumulation score: "≤ -0.009 (inactive)"
- Compound: "CN(C)Cc1ccc(-c2nc3cccc4c3n2CCNC4=O)cc1"
  scaled lipid accumulation score: "0.037 (inactive)"
- Compound: "O=C1C(Cl)=C(N2CCOCC2)C(=O)N1c1ccc(Cl)c(Cl)c1"
  scaled lipid accumulation score: "≤ -0.009 (inactive)"
- Compound: "COc1cc2nccc(Oc3ccc(NC(=O)Nc4cc(C)on4)c(Cl)c3)c2cc1OC"
  scaled lipid accumulation score: "0.068 (inactive)"
- Compound: "CO[C@H]1/C=C\\C=C(/C)C(=O)NC2=CC(=O)C(NCCN(C)C)=C(C[C@@H](C)C[C@H](OC)[C@H](O)[C@@H](C)/C=C(\\C)[C@@H]1OC(N)=O)C2=O [17-DMAG (Alvespimycin) HCl]"
  scaled lipid accumulation score: "0.404 (inactive)"
- Compound: "Cc1onc(-c2ccccc2)c1-c1ccc(S(N)(=O)=O)cc1"
  scaled lipid accumulation score: "≤ 0 (inactive)"
- Compound: "CS(=O)(=O)c1ccc(-c2nc(-c3ccc(F)cc3)c(-c3ccncc3)[nH]2)cc1"
  scaled lipid accumulation score: "≤ 0 (inactive)"
- Compound: "CC(=O)Nc1cccc2c1c(Sc1ccc(Cl)cc1)c(C)n2CC(=O)O"
  scaled lipid accumulation score: "≤ -0.009 (inactive)"
- Compound: "C=CC(=O)Nc1cccc(Oc2nc(Nc3ccc(N4CCN(C)CC4)cc3)ncc2Cl)c1"
  scaled lipid accumulation score: "0.415 (inactive)"
- Compound: "CCOC(=O)c1c(C)[nH]c(/C=C2\\C(=O)Nc3ccccc32)c1C"
  scaled lipid accumulation score: "≤ 0 (inactive)"
- Compound: "CCN(CC)CCNC(=O)c1c(C)[nH]c(/C=C2\\C(=O)Nc3ccc(Cl)cc32)c1C"
  scaled lipid accumulation score: "0.556 (inactive)"
- Compound: "Cc1noc(-c2ccc(CSCCC(=O)O)cc2)c1NC(=O)OC(C)c1ccccc1Cl (configuration not stated)"
  scaled lipid accumulation score: "0.003 (inactive)"
- Compound: "Cc1cc(OCc2nnc(SC3CCCC3)n2-c2cccnc2)ccc1-c1ccc(S(C)(=O)=O)cc1"
  scaled lipid accumulation score: "0.619 (inactive)"
- Compound: "CC(=O)O/N=C1\\C(=O)N(Cc2cc(Cl)ccc2Cl)c2ccc(Cl)cc21"
  scaled lipid accumulation score: "≤ -0.009 (inactive)"
- Compound: "CC(=O)Nc1nc2c(Oc3cc(-c4ccc(C(F)(F)F)cc4)ncn3)cccc2s1"
  scaled lipid accumulation score: "≤ -0.009 (inactive)"

---

Test system: primary human hepatic stellate cells (donor 1)
Assay: scaled lipid accumulation score (0 = DMSO-like, 1 = nortriptyline-like); higher = stronger HSC inactivation (lipid re-accumulation), active = hit call of the paper
Conditions: library stock concentration: 4.7 mM; 48 h
Counter-ions that a name gives are not always drawn. The whole screen tested about 5,800 compounds, of which about 620 (11%) showed activity. This is one part of a sample in which actives are shown more often than they occur.

- Compound: "CC1(C)S[C@@H]2[C@H](N3C(=O)[C@@H](c4ccccc4)NC3(C)C)C(=O)N2[C@H]1C(=O)O"
  scaled lipid accumulation score: "0.007 (inactive)"
- Compound: "CN1CCN(CC(=O)N2c3ccccc3C(=O)Nc3cccnc32)CC1 [Pirenzepine hydrochloride]"
  scaled lipid accumulation score: "≤ 0 (inactive)"
- Compound: "C[n+]1cc2c3c(ccc2c2ccc4cc5c(cc4c21)OCO5)OCO3 [Sanguinarine sulfate]"
  scaled lipid accumulation score: "0.693 (inactive)"
- Compound: "CN1CCC(=C2c3ccccc3CC(=O)c3sccc32)CC1 [Ketotifen fumarate]"
  scaled lipid accumulation score: "0.276 (inactive)"
- Compound: "O=c1[nH]c2ccccc2n1CCCN1CCN(C(c2ccccc2)c2ccccc2)CC1 [Oxatomide]"
  scaled lipid accumulation score: "0.191 (inactive)"
- Compound: "CC[C@@]1(O)C(=O)OCc2c1cc1n(c2=O)Cc2cc3c(CN(C)C)c(O)ccc3nc2-1"
  scaled lipid accumulation score: "≤ 0 (inactive)"
- Compound: "CCc1oc2ccccc2c1C(=O)c1cc(Br)c(O)c(Br)c1"
  scaled lipid accumulation score: "≤ 0 (inactive)"
- Compound: "C=C[C@H]1CN2CC[C@H]1C[C@H]2[C@H](O)c1ccnc2ccc(OC)cc12 [Quinine sulfate]"
  scaled lipid accumulation score: "0.308 (inactive)"
- Compound: "COc1cc(C(=O)NCc2ccc(OCCN(C)C)cc2)cc(OC)c1OC [Trimethobenzamide hydrochloride]"
  scaled lipid accumulation score: "0.028 (inactive)"

---

scaled lipid accumulation score for assorted compounds
Tested on: primary human hepatic stellate cells (donor 1)
Experiment: scaled lipid accumulation score (0 = DMSO-like, 1 = nortriptyline-like); higher = stronger HSC inactivation (lipid re-accumulation), active = hit call of the paper
Conditions: library stock concentration: 1 mM; 48 h
Counter-ions that a name gives are not always drawn. Screen size: about 5,800 compounds; about 620 (11%) showed activity. The full list was thinned out, with actives kept by preference.

- Compound: "CCCCC(C)(C)[C@H](O)/C=C/[C@H]1C(=O)C[C@H](O)[C@@H]1C/C=C\\CCCC(=O)O [16,16-dimethyl Prostaglandin D2]"
  Tested target: "primary human hepatic stellate cells (donor 1)"
  scaled lipid accumulation score: "≤ 0 (inactive)"
- Compound: "CCCCCCCCCC(=O)OCC(CO)OC(=O)CCCCCCCCC (stereo not given) [1,2-Didecanoyl-sn-glycerol]"
  Tested target: "primary human hepatic stellate cells (donor 1)"
  scaled lipid accumulation score: "≤ 0 (inactive)"
- Compound: "CCCCC[C@H](O)/C=C/[C@H]1CC[C@H](O)[C@@H]1CCCCCCC(=O)O [11-deoxy Prostaglandin F1.alpha.]"
  Tested target: "primary human hepatic stellate cells (donor 1)"
  scaled lipid accumulation score: "≤ 0 (inactive)"
- Compound: "CCCCC[C@H](O)/C=C/[C@H]1C(=O)C[C@H](O)[C@@H]1C/C=C\\CCCC(=O)NC(CO)CO [Prostaglandin D2 serinol amide]"
  Tested target: "primary human hepatic stellate cells (donor 1)"
  scaled lipid accumulation score: "≤ 0 (inactive)"
- Compound: "CCCCC[C@H](O)/C=C/[C@@H]1[C@@H](C/C=C\\CCCCN(C)C)[C@@H](O)C[C@H]1O [Prostaglandin F2.alpha. dimethyl amine]"
  Tested target: "primary human hepatic stellate cells (donor 1)"
  scaled lipid accumulation score: "≤ 0 (inactive)"
- Compound: "Nc1ccccc1NC(=O)c1ccc(CNC(=O)OCc2cccnc2)cc1"
  Tested target: "primary human hepatic stellate cells (donor 1)"
  scaled lipid accumulation score: "0.014 (inactive)"
- Compound: "CCCCCCCCCC(=O)OCC(CO)OC(=O)CCCCCCCCC (stereo not given) [1,2-Didecanoyl-glycerol (10:0)]"
  Tested target: "primary human hepatic stellate cells (donor 1)"
  scaled lipid accumulation score: "≤ -0.021 (inactive)"
- Compound: "COc1ccc2c(c1)c(CC(=O)Nc1cccnc1)c(C)n2C(=O)c1ccc(Cl)cc1 [N-(3-pyridyl)-Indomethacin amide]"
  Tested target: "primary human hepatic stellate cells (donor 1)"
  scaled lipid accumulation score: "0.198 (inactive)"
- Compound: "CCCCCCCCCCCCC/C=C/[C@@H](O)[C@H](CO)NC(=O)CCCCCCC [C8 Ceramide]"
  Tested target: "primary human hepatic stellate cells (donor 1)"
  scaled lipid accumulation score: "≤ -0.021 (inactive)"
- Compound: "O=C1C[C@@H]2[C@@H](CC[C@@H](O)CCc3ccccc3)[C@H](O)C[C@@H]2O1 [Latanoprost Lactone Diol]"
  Tested target: "primary human hepatic stellate cells (donor 1)"
  scaled lipid accumulation score: "0.003 (inactive)"
- Compound: "CC1CCN=C(N)C1 (stereo not given) [2-Imino-4-methylpiperidine (acetate)]"
  Tested target: "primary human hepatic stellate cells (donor 1)"
  scaled lipid accumulation score: "0.011 (inactive)"
- Compound: "CCC=CCC=CCC=CCC=CCCCCCCC(=O)O [.omega.-3 Arachidonic Acid]"
  Tested target: "primary human hepatic stellate cells (donor 1)"
  scaled lipid accumulation score: "≤ 0 (inactive)"
- Compound: "CCCCCCCCCCCCC/C=C/[C@@H](O)[C@H](CO)NC(=O)CCCCCCC [C-8 Ceramide]"
  Tested target: "primary human hepatic stellate cells (donor 1)"
  scaled lipid accumulation score: "≤ 0 (inactive)"
- Compound: "CCCCCCCCCCCCCCCCCCCC(=O)NCCO [Arachidoyl Ethanolamide]"
  Tested target: "primary human hepatic stellate cells (donor 1)"
  scaled lipid accumulation score: "≤ 0 (inactive)"
- Compound: "CCCCCCCCCCCCCCCC(=O)OC[C@@H](O)COP(=O)(O)O [1-Palmitoyl Lysophosphatidic Acid (sodium salt)]"
  Tested target: "primary human hepatic stellate cells (donor 1)"
  scaled lipid accumulation score: "0.001 (inactive)"

Where do the numbers come from? From the supplement of paper PMC9135407.
